So I've got a bunch of compounds here, and I need their inhibition at 50 µM values.
# experimental_target: PI-3 kinase γ (Homo sapiens, UniProt P48736)
# Sequence (P48736 whole entry): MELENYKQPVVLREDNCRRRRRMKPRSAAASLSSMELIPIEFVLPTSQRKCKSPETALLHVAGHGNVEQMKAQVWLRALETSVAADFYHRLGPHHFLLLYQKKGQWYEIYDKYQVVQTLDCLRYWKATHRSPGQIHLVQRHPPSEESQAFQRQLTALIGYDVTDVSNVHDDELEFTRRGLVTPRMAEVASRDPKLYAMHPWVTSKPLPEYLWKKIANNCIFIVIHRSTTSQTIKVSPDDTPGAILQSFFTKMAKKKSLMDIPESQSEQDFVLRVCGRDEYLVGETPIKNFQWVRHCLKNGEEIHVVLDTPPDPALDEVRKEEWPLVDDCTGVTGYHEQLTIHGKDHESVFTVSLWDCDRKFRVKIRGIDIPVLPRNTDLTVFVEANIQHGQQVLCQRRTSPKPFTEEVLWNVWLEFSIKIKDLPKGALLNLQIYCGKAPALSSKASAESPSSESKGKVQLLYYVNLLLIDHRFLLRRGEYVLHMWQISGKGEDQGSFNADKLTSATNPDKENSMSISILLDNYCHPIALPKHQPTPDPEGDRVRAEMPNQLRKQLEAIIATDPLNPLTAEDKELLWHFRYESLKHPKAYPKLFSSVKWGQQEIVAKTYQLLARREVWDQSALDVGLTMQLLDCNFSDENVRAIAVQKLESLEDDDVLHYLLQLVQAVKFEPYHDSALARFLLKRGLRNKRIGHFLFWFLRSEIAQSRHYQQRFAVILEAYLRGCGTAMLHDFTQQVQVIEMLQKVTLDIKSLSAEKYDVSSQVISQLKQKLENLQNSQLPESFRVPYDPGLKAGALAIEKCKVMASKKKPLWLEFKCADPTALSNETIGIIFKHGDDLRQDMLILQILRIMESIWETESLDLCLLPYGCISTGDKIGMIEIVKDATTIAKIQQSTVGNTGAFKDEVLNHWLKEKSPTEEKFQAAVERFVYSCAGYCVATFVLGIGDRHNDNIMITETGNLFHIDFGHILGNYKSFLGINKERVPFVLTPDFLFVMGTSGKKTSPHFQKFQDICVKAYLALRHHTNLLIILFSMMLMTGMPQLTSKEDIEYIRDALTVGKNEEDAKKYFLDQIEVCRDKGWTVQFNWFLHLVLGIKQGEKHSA
# protocol_summary: PI3Kγ inhibitory activity, PI3-kinase HTRF assay (inhibition ratio)
# Format: biochemical
# test_conditions: 0.5 h, compound at 50 μmol/L
One number for each entry, in %.

Take a look at these entries with their results.
O=C(Nc1ccccc1)N1CCOc2ccc(/C=C/c3ccccc3)nc21 [Compound I-60] :: 74
COC(=O)c1ccc(O)c(Nc2ccc3c(n2)N(C(=O)Nc2ccccc2)CCO3)c1 [Compound I-217] :: 77
COc1ccc2cc(-c3cnc4c(c3)OCCN4C(=O)Nc3ccccc3)[nH]c2c1 [Compound I-302] :: 87
Cc1ccc(Nc2cnc3c(c2)OCCN3C(=O)Nc2ccccc2)cc1F [Compound I-319] :: 92
COCOc1ccc(C(=O)O)cc1NC(=O)c1ccc2c(n1)N(C(=O)Nc1ccccc1)CCO2 [Compound I-218] :: 87
O=C(Nc1ccccc1)N1CCOc2cc(-c3cc4ccccc4[nH]3)cnc21 [Compound I-282] :: 74
O=C(O)c1ccc(-c2cnc3c(c2)OCCN3C(=O)Nc2ccccc2)cc1 [Compound I-111] :: 87
CC(C)(C)OC(=O)CNC(=O)c1ccc(Nc2ccc3c(n2)N(C(=O)Nc2ccccc2)CCO3)cc1 [Compound I-273] :: 76
COc1cccc(NC(=O)N2CCOc3nc(-c4ccc(C(=O)O)cc4)ccc32)c1 [Compound I-265] :: 75
COc1ccc(Nc2cnc3c(c2)OCCN3C(=O)Nc2ccccc2)cc1 [Compound I-313] :: 92

[Q] I'm curious: which inhibition at 50 µM was measured for C#CCC1(C)SC(N2CCOc3cccnc32)=NC1=O (stereo not drawn) [Compound I-7] tested on PI-3 kinase γ (Homo sapiens, UniProt P48736)?
[A] 75

###

# experimental_target: PI-3 kinase γ (Homo sapiens, UniProt P48736)
# protocol_summary: PI3Kγ inhibitory activity, PI3-kinase HTRF assay (inhibition ratio)
# Type: biochemical
# test_conditions: 0.5 h, compound at 50 μmol/L
property: inhibition at 50 µM

Check out these entries, answers already filled in.
CC(C)(C)OC(=O)COc1cccc(Nc2ccc3c(n2)N(C(=O)Nc2ccccc2)CCO3)c1 :: ≥ 95%
COc1ccc(-c2ccc3c(n2)N(C2=NC(=O)C(C)(C)S2)CCO3)cc1OC :: 95%
CNC(=O)c1cnc2c(c1)OCCN2C(=O)Nc1ccccc1 :: 89%
COC(=O)c1ccc(Nc2ccc3c(n2)N(C(=O)Nc2ccccc2)CCO3)c(OCCNC(=O)OC(C)(C)C)c1 :: ≥ 95%
O=C(O)C1CCN(c2ccc3c(n2)N(C(=O)Nc2ccccc2)CCO3)CC1 :: ≥ 95%

Fill in inhibition at 50 µM for each of the 3 compounds listed.
1. COC(=O)c1ccc(Nc2cnc3c(c2)OCCN3C(=O)Nc2ccccc2)cc1OC
2. O=C(Nc1ccccc1)N1CCOc2cc(Nc3ccc4c(c3)CCO4)cnc21
3. CC(C)(C)OC(=O)COc1ccc(Nc2ccc3c(n2)N(C(=O)Nc2ccccc2)CCO3)cc1

[A]
1: 86%; 2: 95%; 3: ≥ 95%

###

# experimental_target: CYP2D6 (Homo sapiens)
# Sequence (P10635 whole entry): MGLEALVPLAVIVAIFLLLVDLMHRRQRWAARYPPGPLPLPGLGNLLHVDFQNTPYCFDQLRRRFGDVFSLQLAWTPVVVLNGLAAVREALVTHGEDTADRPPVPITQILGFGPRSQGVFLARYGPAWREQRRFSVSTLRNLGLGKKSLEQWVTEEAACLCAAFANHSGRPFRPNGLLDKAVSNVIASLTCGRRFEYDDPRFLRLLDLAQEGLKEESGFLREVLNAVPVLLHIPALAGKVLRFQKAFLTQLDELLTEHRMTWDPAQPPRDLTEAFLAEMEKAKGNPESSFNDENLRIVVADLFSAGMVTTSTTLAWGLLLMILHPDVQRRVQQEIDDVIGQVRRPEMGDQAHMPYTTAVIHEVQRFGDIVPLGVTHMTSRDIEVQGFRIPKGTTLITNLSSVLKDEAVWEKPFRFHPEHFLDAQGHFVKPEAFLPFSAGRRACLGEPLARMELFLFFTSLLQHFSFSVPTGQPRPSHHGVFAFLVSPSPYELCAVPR
pIC50: −log10 of the molar value.
property: pIC50

[Q] What does the record list as pIC50 for O=C(O)COc1cccc(Nc2ccc3c(n2)N(C(=O)Nc2ccccc2)CCO3)c1 ?
[A] < 4.70

###

# experimental_target: PI-3 kinase γ (Homo sapiens, UniProt P48736)
# protocol_summary: PI3Kγ inhibitory activity, PI3-kinase HTRF assay (inhibition ratio)
# Assay type: biochemical
# test_conditions: 0.5 h, compound at 50 μmol/L
property: inhibition at 50 µM (%)
One number for each entry, in %.

S=C(Nc1cccnc1)N1CCOc2cccnc21 :: 90
C=CCC1(C)SC(N2CCOc3cccnc32)=NC1=O (stereo not drawn) :: 80
CCOC(=O)CC(=O)Nc1ccc2c(n1)N(C(=O)Nc1ccccc1)CCO2 :: 87

Kindly consider the entry below.
[Q] Report inhibition at 50 µM for O=C(O)CCNC(=O)c1cnc2c(c1)OCCN2C(=O)Nc1ccccc1 tested on PI-3 kinase γ (Homo sapiens, UniProt P48736).
[A] 92

###

// each record: one item and its pIC50 for CYP1A2 (Homo sapiens, UniProt P05177)
pIC50: −log10 of the molar value.

Below, each entry is followed by its recorded pIC50 result.
O=C(O)CNC(=O)Nc1cnc2c(c1)OCCN2C(=O)Nc1ccccc1 :: < 4.70
O=C(O)COc1cccc(Nc2ccc3c(n2)N(C(=O)Nc2ccccc2)CCO3)c1 :: < 4.70

Below: the item to evaluate.
[Q] Would you mind telling me what pIC50 value was observed for CC1(C)SC(N2CCOc3cccnc32)=NC1=O ?
[A] < 4.70

###

# experimental_target: PI-3 kinase γ (Homo sapiens)
# protocol_summary: PI3Kγ inhibitory activity, PI3-kinase HTRF assay (inhibition ratio)
# Assay type: biochemical
# test_conditions: 0.5 h, compound at 50 μmol/L
Hi there, I'd appreciate the recorded inhibition at 50 µM for every entry that follows.
Answers are plain numbers, in %.

Here is how some molecules turned out for inhibition at 50 µM.
CC(C)(C)OC(=O)CCNC(=O)c1cnc2c(c1)OCCN2C(=O)Nc1ccccc1 :: 84
O=C(O)c1ccc(-c2ccc3c(n2)N(C(=O)Nc2ccccc2)CCO3)cc1 :: 93

Parameters: items (list). Returns: inhibition at 50 µM for each item.
1. O=C(Nc1ccccc1)N1CCOc2cc(Nc3ccc(F)cc3Cl)cnc21
2. CCCc1ccc2c(n1)N(C(=O)Nc1ccccc1)CCO2
3. O=C(Nc1ccccc1)N1CCOc2ccc(Nc3ccccc3)nc21
4. CC(=O)Nc1ccc2c(n1)N(C(=O)Nc1ccccc1)CCO2

[A]
1: 90; 2: 72; 3: 81; 4: 79

Each molecule below has a reported value. Please supply its inhibition at 50 µM.
1. COC(=O)c1ccccc1Nc1ccc2c(n1)N(C(=O)Nc1ccccc1)CCO2
2. CC(C)(C)OC(=O)CC(=O)Nc1cnc2c(c1)OCCN2C(=O)Nc1ccccc1
3. CCOC(=O)CNC(=O)Nc1cnc2c(c1)OCCN2C(=O)Nc1ccccc1
4. O=C(O)c1ccc(NC(=O)c2ccc3c(n2)N(C(=O)Nc2ccccc2)CCO3)cc1
5. O=C(O)Cn1cc(-c2cnc3c(c2)OCCN3C(=O)Nc2ccccc2)cn1
6. COC(=O)c1ccc(N(C)c2cnc3c(c2)OCCN3C(=O)Nc2ccccc2)cc1
7. Nc1ccc(-c2ccc3c(n2)N(C(=O)Nc2ccccc2)CCO3)cn1
8. COC(=O)c1cccc(-c2ccc3c(n2)N(C(=O)Nc2ccccc2)CCO3)c1

[A]
1. 82
2. 75
3. 83
4. 80
5. 88
6. 77
7. 76
8. 94

Hi there! I need inhibition at 50 µM for each item below, if you can.
1. CN1CCOc2cc(-c3ccc4c(n3)N(C(=O)Nc3ccccc3)CCO4)ccc21
2. CC(C)(C)NC(=O)c1ccccc1Nc1cnc2c(c1)OCCN2C(=O)Nc1ccccc1

[A]
1. 82
2. 93

###

# protocol_summary: Solubility test in artificial intestinal juice pH 6.8
# Format: physicochemical
# test_conditions: kinetic from dmso stock, artificial intestinal juice pH 6.8, 1% DMSO, 25° C.
Please respond with reported solubility at 16 h for every item in the list.

Some solved cases for reference:
O=C(O)c1cccc(Nc2cnc3c(c2)OCCN3C(=O)Nc2ccccc2)c1 [Compound I-138] :: > 50 µM
O=C(O)COc1ccccc1Nc1ccc2c(n1)N(C(=O)Nc1ccccc1)CCO2 [Compound I-248] :: > 50 µM

[Q] Entry O=C(O)c1ccc(Nc2cnc3c(c2)OCCN3C(=O)Nc2ccccc2)cc1 [Compound I-139] : reported solubility at 16 h = ?
[A] > 50 µM

###

# experimental_target: PI-3 kinase γ (Homo sapiens)
# protocol_summary: PI3Kγ inhibitory activity, PI3-kinase HTRF assay (inhibition ratio)
# Type: biochemical
# test_conditions: 0.5 h, compound at 50 μmol/L
Exercise: for every item that follows, state its recorded inhibition at 50 µM.

Answered examples (5):
COC(=O)c1cncc(-c2ccc3c(n2)N(C(=O)Nc2ccccc2)CCO3)c1 :: ≥ 95%
CCOC(=O)N1CCC(NC(=O)N2CCOc3ccc(-c4ccc(C(=O)O)cc4)nc32)CC1 :: ≥ 95%
O=C(Nc1ccccc1)N1CCOc2ccc(Nc3ccncc3)nc21 :: ≥ 95%
O=C(O)c1ccc(Nc2ccc3c(n2)N(C(=O)Nc2ccccc2)CCO3)cc1 :: ≥ 95%
N#Cc1ccc(Nc2cnc3c(c2)OCCN3C(=O)Nc2ccccc2)cc1 :: ≥ 95%

State the recorded inhibition at 50 µM for every item in the following list.
1. CCOC(=O)Cc1ccc(Nc2ccc3c(n2)N(C(=O)Nc2ccccc2)CCO3)cc1
2. O=C(O)c1ccccc1Nc1cnc2c(c1)OCCN2C(=O)Nc1ccccc1
3. O=C(O)COc1cccc(Nc2ccc3c(n2)N(C(=O)Nc2ccccc2)CCO3)c1
4. O=C(O)CCCc1ccc2c(n1)N(C(=O)Nc1ccccc1)CCO2

[A]
["≥ 95%", "≥ 95%", "≥ 95%", "≥ 95%"]
